# reported growth inhibition; entries follow
- Test description: NCI Yeast Anticancer Drug Screen. Data for the mlh1 rad18 strain (AID 175)
- Condition: S. cerevisiae mlh1 rad18 strain growth inhibition; at 5.0 µM (retest, dose inferred, filed as 0.5); active compounds read high
Compounds without any hit were thinned out: in the full panel of roughly 79,000, 15% have a hit.
Write the value in % as a bare number.

Completed entries (count: 2):
{"columns": ["Compound", "growth inhibition [%]"],
 "data": [
  ["CC(C)COP(=O)(OCC(C)C)C(NS(=O)(=O)c1ccccc1)(C(F)(F)F)C(F)(F)F", 0],
  ["CC(=O)/C(=C\\c1ccc(Cl)cc1Cl)C(=O)CCN(C)C", 1]
]}

For record O=C1NC(c2ccccc2)(c2cccs2)C(=O)N1C1c2ccccc2Oc2ccccc21 (stereo unspecified) the listed growth inhibition is 21

For record Clc1ccc(Cc2nc3ccccc3s2)c(Cl)c1 the listed growth inhibition is 57

For record O=C1CC(c2ccccc2)C(c2ccccc2)CO1 (stereo unspecified) the listed growth inhibition is 74

For record CCCCCCCCCCCCNCc1ccc(O)c(OC)c1 the listed growth inhibition is 98

For record N=C(N)c1ccc(Nc2ccc(C(=N)N)cc2)cc1 the listed growth inhibition is 14

For record O=[N+]([O-])CCc1ccco1 the listed growth inhibition is 0

Source listed as PubChem BioAssay (NCI).
